ENDPOINT: melting point

Ask: Which melting point is reported for this compound? CCOC(=O)c1c(CN(CC)CC)nc2sc3ccncc3c2c1-c1ccc(OC)c(OC)c1 [Example 55A]
Result: 141 to 142 °C

Ask: Which melting point is reported for this compound? CCOC(=O)c1c(CN(CC)CC)nc2sc3c(c2c1-c1ccc(Cl)cc1)CCNC3
Result: 104 to 106 °C

Ask: Which melting point is reported for this compound? COc1ccc(-c2c(Cl)c(CNC(=O)Cn3cncn3)nc3sc4c(c23)CCN(Cc2ccccc2)C4)cc1OC [Example 20B]
Result: 101 to 102 °C

Ask: Which melting point is reported for this compound? CCOC(=O)c1c(CN(CC)CC)nc2sc3c(c2c1-c1ccc(CC)cc1)CCN(OC(=O)CC)C3 [Example 39A]
Result: 97 to 99 °C

Ask: Which melting point is reported for this compound? CCOC(=O)c1c(CN2C(=O)CN(C)C2=O)nc2sc3c(c2c1-c1ccc(OC)c(OC)c1)CCN(C(=O)c1ccccc1)C3 [Example 52A]
Result: 185 to 187 °C

Ask: Which melting point is reported for this compound? CCOC(=O)c1c2c(cn1Cn1cncn1)C1=C(NC(C(=O)OCc3ccccc3)CC1)[SH]2c1ccc(OC)c(OC)c1 (centres unmarked) [Example 17A]
Result: 166 to 167 °C

Ask: Which melting point is reported for this compound? CCOC(=O)c1c2c(cn1CN(CC)CC)C1=C(NC(C(C)=O)CC1)[SH]2c1ccc(OC)c(OC)c1 (centres unmarked) [Example 32A]
Result: 123 to 124 °C

Ask: Which melting point is reported for this compound? CCOC(=O)c1c(CN(CC)CC)nc2sc3c(c2c1-c1ccc(OC)c(OC)c1)CN(C(=O)c1ccc(Cl)cc1)CC3 [Example 53A]
Result: 91 to 92 °C

Ask: Which melting point is reported for this compound? CCOC(=O)c1c(Cn2cncn2)nc2sc3c(c2c1-c1ccc(OC)c(OC)c1)CN(C(=O)OCc1ccccc1)CC3 [Example 59A]
Result: 169 to 170 °C

Ask: Which melting point is reported for this compound? COc1ccc(-c2c(Cl)c(CNC(=O)c3cccnc3)nc3sc4c(c23)CCN(Cc2ccccc2)C4)cc1OC [Example 22B]
Result: 124 to 125 °C

Ask: Which melting point is reported for this compound? CCOC(=O)c1c(CCCCn2cncn2)nc2sc3cnccc3c2c1-c1ccc(OC)c(OC)c1 [Example 30A]
Result: 118 to 119 °C

Ask: Which melting point is reported for this compound? COc1ccc(-c2c(Cl)c(CNC(C)(C)C)nc3sc4c(c23)CCN(Cc2ccccc2)C4)cc1OC
Result: 134 to 135 °C

Ask: Which melting point is reported for this compound? COc1cc(-c2c(Cl)c(CNC(C)(C)C)nc3sc4c(c23)CCN(C(=O)c2ccccc2)C4)ccc1OC(C)C
Result: 165 to 166 °C

Ask: Which melting point is reported for this compound? COc1ccc(-c2c(Cl)c(CNC3CC3)nc3sc4c(c23)CCN(Cc2ccccc2)C4)cc1OC
Result: 131 to 132 °C

Ask: Which melting point is reported for this compound? CCOC(=O)c1c(CCCn2cncn2)nc2sc3cnccc3c2c1-c1ccc(OC)c(OC)c1 [Example 29A]
Result: 127 to 129 °C

Ask: Which melting point is reported for this compound? CCOC(=O)c1c2c(cn1CN(CC)CC)C1=C(NC(C(=O)OCc3ccccc3)CC1)[SH]2c1ccc(OC)c(OC)c1 (centres unmarked) [Example 16A]
Result: 142 to 143 °C

Ask: Which melting point is reported for this compound? CCOC(=O)c1c(CN(CC)CC)nc2sc3c(c2c1-c1ccc(OC)c(OC)c1)CCN(C(=O)c1ccc(Cl)cc1)C3
Result: 96 to 98 °C

Ask: Which melting point is reported for this compound? COc1ccc(-c2c(Cl)c(CN3CCCCCC3=O)nc3sc4c(c23)CCN(Cc2ccccc2)C4)cc1OC [Example 25B]
Result: 113 to 114 °C

Ask: Which melting point is reported for this compound? CCOC(=O)c1c(CN(CC)CC)nc2sc3c(c2c1-c1ccc(Cl)cc1)CCN(C(=O)c1ccccc1)C3
Result: 177 to 178 °C

Ask: Which melting point is reported for this compound? COc1ccc(-c2c(Cl)c(Cn3cncn3)nc3sc4c(c23)CCN(Cc2ccccc2)C4)cc1OC [Example 26B]
Result: 165 to 166 °C

Ask: Which melting point is reported for this compound? CCOC(=O)c1c(Cc2nc[nH]n2)nc2sc3cnccc3c2c1-c1ccc(OC)c(OC)c1 [Example 22A]
Result: 172 to 174 °C

Ask: Which melting point is reported for this compound? CCOC(=O)c1c(CN(CC)CC)nc2sc3c(c2c1-c1ccc(CC)cc1)CCN(C(=O)Nc1ccccc1)C3 [Example 36A]
Result: 112 to 114 °C

Ask: Which melting point is reported for this compound? CCOC(=O)c1c(CN(CC)CC)nc2sc3c(c2c1-c1ccc(OC)c(OC)c1)CCN(C(=O)Nc1ccccc1)C3 [Example 12A]
Result: 154 to 155 °C

Ask: Which melting point is reported for this compound? CCOC(=O)c1c(CN(CC)CC)nc2sc3c(c2c1-c1ccc(OC)c(OC)c1)CCCN3C(=O)OCc1ccccc1 [Example 58A]
Result: 138 to 139 °C

Ask: Which melting point is reported for this compound? COc1ccc(-c2c(Cl)c(CNS(=O)(=O)c3ccccc3)nc3sc4c(c23)CCN(Cc2ccccc2)C4)cc1OC [Example 19B]
Result: 153 to 154 °C

Ask: Which melting point is reported for this compound? CCOC(=O)c1c(Cn2cncn2)nc2sc3c(c2c1-c1ccc(OC)c(OC)c1)CCNC3 [Example 21A]
Result: 164 to 165 °C

Ask: Which melting point is reported for this compound? CCOC(=O)c1c(CCCn2cncn2)nc2sc3c(c2c1-c1ccc(OC)c(OC)c1)CCN(C(=O)c1ccc(Cl)cc1)C3 [Example 27A]
Result: 114 to 116 °C

Ask: Which melting point is reported for this compound? CCOC(=O)c1c(Cn2cncn2)nc2sc3cnccc3c2c1-c1ccc(OC)c(OC)c1 [Example 47A]
Result: 172 to 174 °C

Ask: Which melting point is reported for this compound? CCOC(=O)c1c(CCn2cncn2)nc2sc3c(c2c1-c1ccc(OC)c(OC)c1)CCN(C(=O)c1ccc(Cl)cc1)C3 [Example 26A]
Result: 195 to 197 °C

Reference for the values: patent US6403606B1
